Provenance of the data: patent US20190202907A1

Molecular target: T1, human ST2L (human, UniProt Q01638 19-328, limits assumed)
T1 construct: also called IL-1R4; IL-33Ra
T1 sequence (looked up): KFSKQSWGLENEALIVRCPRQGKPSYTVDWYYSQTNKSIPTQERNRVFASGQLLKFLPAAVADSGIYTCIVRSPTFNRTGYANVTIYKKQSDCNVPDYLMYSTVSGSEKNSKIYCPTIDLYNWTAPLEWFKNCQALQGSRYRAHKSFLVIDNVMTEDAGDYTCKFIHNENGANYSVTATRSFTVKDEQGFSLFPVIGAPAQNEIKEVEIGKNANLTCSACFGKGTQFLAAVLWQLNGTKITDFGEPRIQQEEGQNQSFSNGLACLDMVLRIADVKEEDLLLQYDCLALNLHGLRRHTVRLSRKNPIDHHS
Test: affinity table; method not stated
recorded metric: kon (M⁻¹ s⁻¹)
Numeric only. Scale: M⁻¹ s⁻¹

| binder | kon [M⁻¹ s⁻¹] |
| --- | --- |
| STLM230 (antibody, from another filing, V domains shown) VH: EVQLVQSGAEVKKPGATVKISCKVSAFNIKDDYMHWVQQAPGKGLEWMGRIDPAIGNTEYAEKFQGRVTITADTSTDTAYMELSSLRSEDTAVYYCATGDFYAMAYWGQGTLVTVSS VL: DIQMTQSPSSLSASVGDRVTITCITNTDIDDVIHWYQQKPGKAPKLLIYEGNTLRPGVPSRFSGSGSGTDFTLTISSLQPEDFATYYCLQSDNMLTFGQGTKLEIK | 1.11e+07 |

**Q:** Endpoint output: kon of STLM219 (antibody, from another filing, V domains shown) VH: EVQLLESGGGLVQPGGSLRLSCAASGFTFSGYDMFWVRQAPGKGLEWVSDIGGEGGSTNYADSVKGRFTISRDNSKNTLYLQMNSLRAEDTAVYYCARDPWSTEGSFFVLDYWGQGTLVTVSS VL: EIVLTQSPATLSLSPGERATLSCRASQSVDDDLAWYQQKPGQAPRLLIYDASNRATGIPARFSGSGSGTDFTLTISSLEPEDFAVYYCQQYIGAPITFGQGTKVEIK . Value?
**A:** 7.54e+06

**Q:** Endpoint output: kon of STLM227 (antibody, from another filing, V domains shown) VH: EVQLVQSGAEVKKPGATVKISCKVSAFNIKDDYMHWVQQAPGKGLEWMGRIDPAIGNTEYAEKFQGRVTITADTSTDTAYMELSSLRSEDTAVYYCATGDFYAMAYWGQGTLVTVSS VL: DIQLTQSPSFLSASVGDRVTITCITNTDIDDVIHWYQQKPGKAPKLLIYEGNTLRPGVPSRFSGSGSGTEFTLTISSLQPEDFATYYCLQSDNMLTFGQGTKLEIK . Value?
**A:** 2.66e+07

**Q:** Endpoint output: kon of STLM216 (antibody, from another filing, V domains shown) VH: EVQLLESGGGLVQPGGSLRLSCAASGFTFSSYDMFWVRQAPGKGLEWVSDIKGEGGATNYADSVKGRFTISRDNSKNTLYLQMNSLRAEDTAVYYCARDPWSTEGSFFVLDYWGQGTLVTVSS VL: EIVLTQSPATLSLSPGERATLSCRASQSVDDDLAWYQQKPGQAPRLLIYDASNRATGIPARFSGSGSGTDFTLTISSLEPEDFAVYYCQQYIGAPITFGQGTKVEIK . Value?
**A:** 9.63e+06

**Q:** Endpoint output: kon of STLM213 (antibody, from another filing, V domains shown) VH: EVQLLESGGGLVQPGGSLRLSCAASGFTFSFYDMIWVRQAPGKGLEWVSTIRGEGGDTNYADSVKGRFTISRDNSKNTLYLQMNSLRAEDTAVYYCARDPWSTEGSFFVLDYWGQGTLVTVSS VL: EIVLTQSPATLSLSPGERATLSCRASQSVDDDLAWYQQKPGQAPRLLIYDASNRATGIPARFSGSGSGTDFTLTISSLEPEDFAVYYCQQYIDAPLTFGQGTKVEIK . Value?
**A:** 7.54e+06

**Q:** Endpoint output: kon of STLM123 (antibody, from another filing, V domains shown) VH: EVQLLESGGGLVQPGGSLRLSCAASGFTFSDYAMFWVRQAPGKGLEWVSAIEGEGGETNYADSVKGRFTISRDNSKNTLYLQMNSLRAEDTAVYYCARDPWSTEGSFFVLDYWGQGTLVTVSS VL: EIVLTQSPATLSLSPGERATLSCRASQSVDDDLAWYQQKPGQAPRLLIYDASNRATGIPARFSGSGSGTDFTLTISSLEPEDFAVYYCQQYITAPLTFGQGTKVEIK . Value?
**A:** 1.37e+07

**Q:** Endpoint output: kon of STLM211 (antibody, from another filing, V domains shown) VH: EVQLLESGGGLVQPGGSLRLSCAASGFTFSGYAMIWVRQAPGKGLEWVSYIEGEGGETYYADSVKGRFTISRDNSKNTLYLQMNSLRAEDTAVYYCARDPWSTEGSFFVLDYWGQGTLVTVSS VL: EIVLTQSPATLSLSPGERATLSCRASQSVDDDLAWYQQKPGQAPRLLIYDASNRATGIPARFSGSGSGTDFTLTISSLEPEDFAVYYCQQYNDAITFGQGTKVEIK . Value?
**A:** 1.7e+07

**Q:** Endpoint output: kon of STLM220 (antibody, from another filing, V domains shown) VH: EVQLLESGGGLVQPGGSLRLSCAASGFTFSFYDMFWVRQAPGKGLEWVSDIRGEGGGTAYADSVKGRFTISRDNSKNTLYLQMNSLRAEDTAVYYCARDPWSTEGSFFVLDYWGQGTLVTVSS VL: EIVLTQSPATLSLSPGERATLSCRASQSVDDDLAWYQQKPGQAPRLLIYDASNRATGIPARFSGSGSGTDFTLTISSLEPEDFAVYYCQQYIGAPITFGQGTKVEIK . Value?
**A:** 5.8e+06

**Q:** Endpoint output: kon of STLM207 (antibody, from another filing, V domains shown) VH: EVQLLESGGGLVQPGGSLRLSCAASGFTFSSYDMIWVRQAPGKGLEWVSTIRGEGGTTAYADSVKGRFTISRDNSKNTLYLQMNSLRAEDTAVYYCARDPWSTEGSFFVLDYWGQGTLVTVSS VL: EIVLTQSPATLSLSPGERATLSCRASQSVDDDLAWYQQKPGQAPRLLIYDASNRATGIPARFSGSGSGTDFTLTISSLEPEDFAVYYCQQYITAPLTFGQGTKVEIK . Value?
**A:** 8.33e+06

**Q:** Endpoint output: kon of STLM221 (antibody, from another filing, V domains shown) VH: EVQLLESGGGLVQPGGSLRLSCAASGFTFSIYDMFWVRQAPGKGLEWVSYIRGEGGDTNYADSVKGRFTISRDNSKNTLYLQMNSLRAEDTAVYYCARDPWSTEGSFFVLDYWGQGTLVTVSS VL: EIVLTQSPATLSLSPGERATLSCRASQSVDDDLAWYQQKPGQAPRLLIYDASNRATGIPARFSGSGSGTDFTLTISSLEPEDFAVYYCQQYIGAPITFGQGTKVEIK . Value?
**A:** 2.73e+06
